All values here come from patent US9957271B2.

Measured Emax of individual entries
# Subject of test: UniProt:Q96EB6
# Sequence (Q96EB6 whole entry): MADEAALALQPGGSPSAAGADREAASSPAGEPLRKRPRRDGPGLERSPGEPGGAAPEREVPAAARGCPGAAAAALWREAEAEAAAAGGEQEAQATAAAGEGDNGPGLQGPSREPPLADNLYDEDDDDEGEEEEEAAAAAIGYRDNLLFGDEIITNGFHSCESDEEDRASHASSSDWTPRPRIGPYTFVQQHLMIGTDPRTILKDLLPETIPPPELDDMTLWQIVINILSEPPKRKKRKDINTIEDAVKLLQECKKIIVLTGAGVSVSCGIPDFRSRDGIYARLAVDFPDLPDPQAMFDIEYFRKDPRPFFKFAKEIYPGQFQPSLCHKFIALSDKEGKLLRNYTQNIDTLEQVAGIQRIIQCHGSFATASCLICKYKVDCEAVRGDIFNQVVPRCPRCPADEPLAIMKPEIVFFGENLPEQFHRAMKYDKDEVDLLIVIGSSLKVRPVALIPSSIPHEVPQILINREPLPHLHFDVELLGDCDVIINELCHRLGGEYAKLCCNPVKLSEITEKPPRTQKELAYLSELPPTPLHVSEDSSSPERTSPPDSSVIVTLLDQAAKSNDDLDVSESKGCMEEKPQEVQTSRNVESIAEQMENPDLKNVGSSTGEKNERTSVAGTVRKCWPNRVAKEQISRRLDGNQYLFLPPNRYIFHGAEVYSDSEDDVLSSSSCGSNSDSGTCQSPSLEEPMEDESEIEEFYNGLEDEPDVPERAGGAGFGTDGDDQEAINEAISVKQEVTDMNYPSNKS
# Measurement description: TAMRA based mass spectrometry assay of SIRT1 activity
# Type: biochemical
# Condition details: TAMRA assay; percent maximum fold activation; read-out: TAMRA % Fold Act

Record excerpt, results attached:
1) Cc1nc2ccc(-c3ccccc3OC[C@H](O)CO)nn2c1C(=O)Nc1cnccn1 [Compound 775]    ≥ 350%
2) Cc1nc2ccc(-c3ccccc3C(F)(F)F)nn2c1C(=O)Nc1ccnn1C(C)C [Compound 680]    < 350%

### Prompt Requested field: Emax. Item: Cc1cc(C)nc(NC(=O)c2cnc3c(C)c(C)c(-c4ccccc4Cl)nn23)c1 [Compound 230]
### Response ≥ 350%
